These measurements were taken from patent US20240327353A1.

# experimental system: 5-HT2CR (Homo sapiens, UniProt P28335)
# Sequence (P28335 33-458): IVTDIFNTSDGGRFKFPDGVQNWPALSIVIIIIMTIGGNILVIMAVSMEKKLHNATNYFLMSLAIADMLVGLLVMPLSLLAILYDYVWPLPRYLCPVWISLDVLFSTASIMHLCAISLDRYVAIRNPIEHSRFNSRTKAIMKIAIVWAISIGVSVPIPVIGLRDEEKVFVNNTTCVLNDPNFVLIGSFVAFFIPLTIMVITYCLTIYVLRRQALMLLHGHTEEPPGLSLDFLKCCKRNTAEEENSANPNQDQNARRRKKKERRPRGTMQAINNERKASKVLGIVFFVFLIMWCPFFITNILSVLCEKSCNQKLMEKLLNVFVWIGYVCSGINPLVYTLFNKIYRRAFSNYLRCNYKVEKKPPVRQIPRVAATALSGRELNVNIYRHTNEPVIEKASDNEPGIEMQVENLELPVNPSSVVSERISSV
# run description: Radioligand binding (competitive displacement and saturation), cell membranes
quantity name: pKi 5-HT2CR

Recorded pKi 5-HT2CR (compound CN(C)[C@@H]1Cc2ccccc2[C@H](c2cccc(Br)c2)C1 (single isomer, unassigned) [(2S,4S)-3a] ): 6.71^(3) 6.93-6.47 7.24^(4) 7.44-7.06

---

# experimental system: 5-HT2BR (Homo sapiens)
# Sequence (P41595 whole entry): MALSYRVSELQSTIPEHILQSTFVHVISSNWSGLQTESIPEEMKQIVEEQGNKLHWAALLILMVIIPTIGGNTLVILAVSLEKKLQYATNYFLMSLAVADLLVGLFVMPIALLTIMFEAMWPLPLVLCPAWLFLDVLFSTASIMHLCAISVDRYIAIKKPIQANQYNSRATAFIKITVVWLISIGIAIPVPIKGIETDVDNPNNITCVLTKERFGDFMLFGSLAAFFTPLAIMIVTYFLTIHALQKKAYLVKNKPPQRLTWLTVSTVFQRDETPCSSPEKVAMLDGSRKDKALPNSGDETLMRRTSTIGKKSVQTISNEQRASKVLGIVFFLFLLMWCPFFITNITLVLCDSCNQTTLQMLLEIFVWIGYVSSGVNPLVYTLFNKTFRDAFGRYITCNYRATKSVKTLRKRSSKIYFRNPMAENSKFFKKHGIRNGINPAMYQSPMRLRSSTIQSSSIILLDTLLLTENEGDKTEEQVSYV
# run description: Radioligand binding (competitive displacement and saturation), cell membranes
# test context: pKi at the 5-HT2BR, single experiment excluded from the reported data, excluded: excessive or incomplete radioligand displacement
quantity name: pKi
Field pKi (float): negative decimal logarithm of the concentration in molar.

Recorded pKi (compound CN(C)c1ccc(-c2cccc([C@H]3C[C@H](N(C)C)Cc4ccccc43)c2)cc1 [(2S,4R)-2k] ): 7.32
